Below: a set of entries, each annotated with reported protein stability index.
B1: BTBD10 (parent)
chain: DRKLHSRPRKLYKHSSTSSRIAKG

variants of: B1; test: protein stability index of a GFP-peptide fusion (GPS, HEK-293T) (PSI 1-6); higher = more stable; conditions: c terminus: a fixed tail appended;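 note: lentivirally expressed fusions sorted by FACS into six bins by GFP to DsRed ratio, PSI derived from sequencing read proportions per bin multiplied by bin number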

variant_key=R2Y measured_value=3.16
variant_key=S6Y measured_value=3.78
variant_key=R7Q measured_value=4.4

# ---- query variant ----
Query string: Supply reported protein stability index belonging to this variant: L11E
Result string: 4.49
